test: collision cross section in nitrogen (drift tube, single-field); higher = larger gas-phase ion size; details: ion type: [M+H]; ion source: ESI; ion mode: Positive;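 also: chemical standards at 10 µM analysed by drift tube IMS-QTOF MS in about 3.95 torr nitrogen, mean of duplicate injections differing ≤1%, mass error below 10 ppm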
Where a name gives a salt, the structure may show the parent alone.
measured metric: collision cross section in nitrogen (Å²)

Some compounds with known collision cross section in nitrogen results, for comparison:
compound: N#C/N=C1\SCCN1Cc1ccc(Cl)nc1
recorded value: 159.6

compound: O=C(O)c1cccc(N(Cc2cccnc2)c2ccc(OC(F)F)c(OC(F)F)c2)c1
recorded value: 200.4

compound: CCN(CC)CCNC(=O)c1c(C)[nH]c(/C=C2\C(=O)Nc3ccc(F)cc32)c1C [Sunitinib malate]
recorded value: 207

compound: CCCCCCCCCCCCN [1-Dodecanamine]
recorded value: 164

compound: CCCSP(=O)(OCC)SCCC
recorded value: 151.5

compound: CO[C@@H]1COCC[C@@H]1N[C@@H]1CC[C@@](C(=O)N2CCc3ncc(C(F)(F)F)cc3C2)(C(C)C)C1
recorded value: 214.6

compound: Cc1cc(=O)oc2cc(O)ccc12 [4-Methylumbelliferone hydrate]
recorded value: 133

compound: Cc1cccc(OP(=O)(Oc2cccc(C)c2)Oc2cccc(C)c2)c1
recorded value: 188.6

compound: COc1ccc(-n2nc(C(F)F)cc2-c2ccc(S(C)=O)cc2)cc1 (stereo not drawn)
recorded value: 187.4

compound: C[C@](N)(Cc1ccc(O)c(O)c1)C(=O)O [Methyldopa sesquihydrate]
recorded value: 149.6

(1) CC1=CP(=O)(c2ccccc2)CC1 (stereo not drawn) [2,3-Dihydro-4-methyl-1-phenyl-1H-phosphole 1-oxide]
(2) N[C@@H](Cc1cc(I)c(Oc2ccc(O)c(I)c2)c(I)c1)C(=O)O
Challenge: # argmax over collision cross section in nitrogen for candidates 1 and 2 Give the label of your selection.
Response given: 2
(2: 205.3 Å², 1: 141.3 Å²)

(I) N=C(N)c1ccccc1 [Benzenecarboximidamide, monohydrochloride]
(II) CCCCc1nc2cccnc2n1Cc1ccc(-c2ccccc2-c2nnn[nH]2)cc1
Challenge: In terms of reported collision cross section in nitrogen, does I or II have the smaller number? Your answer should be the label attached to the chosen record.
Response given: I
(I: 125 Å², II: 196.8 Å²)

----------
experiment: collision cross section in nitrogen (drift tube, single-field); higher = larger gas-phase ion size; settings: ion type: [M+Na]; ion source: ESI; ion mode: Positive
measured metric: collision cross section in nitrogen (Å²)

(I) Nc1ccn([C@@H]2O[C@H](CO)[C@@H](O)[C@@H]2O)c(=O)n1 [Cytarabine]
(II) COc1cc(C(C)C)c2c(c1)S(=O)(=O)N(COc1cc(=O)n3cccc(OCCN4CCCCC4)c3n1)C2=O
Challenge: Between the entries labeled I and II , whose measured collision cross section in nitrogen is lower? Pick one and reply with its label.
Response given: I
(I: 156.9 Å², II: 230.1 Å²)

----------
experiment: collision cross section in nitrogen (drift tube, single-field); higher = larger gas-phase ion size; conditions: ion type: [M+Na]; ion source: ESI; ion mode: Positive
measured metric: collision cross section in nitrogen (Å²)

molecule: CCc1cccc(C)c1N(C(=O)CCl)C(C)COC (stereo not drawn)
collision cross section in nitrogen (Å²): 172.6
//
molecule: CC(C)CCCCCCOC(=O)CCCCC(=O)OCCCCCCC(C)C [Diisononyl adipate]
collision cross section in nitrogen (Å²): 219.4
//
molecule: Cc1nc(-c2ccc3c(c2)CCN(CCC2CCC(NC(=O)/C=C/c4ccc(F)cc4)CC2)CC3)no1 (stereo not drawn)
collision cross section in nitrogen (Å²): 236.2
//
molecule: CCSC(C)CC1CC(=O)C(C(CC)=NOC/C=C/Cl)=C(O)C1 (stereo not drawn)
collision cross section in nitrogen (Å²): 184.9
//
molecule: CC(C)=CC1C(C(=O)OCc2coc(Cc3ccccc3)c2)C1(C)C (stereo not drawn)
collision cross section in nitrogen (Å²): 177.8
//
molecule: O=C(O)c1ccccc1C(=O)OC1CCCCC1 [Monocyclohexyl phthalate]
collision cross section in nitrogen (Å²): 171.7
//
molecule: CCN(Cc1cccc(S(=O)(=O)O)c1)c1ccc(C(=C2C=CC(=[N+](CC)Cc3cccc(S(=O)(=O)[O-])c3)C=C2)c2ccccc2)cc1
collision cross section in nitrogen (Å²): 261.8
//
molecule: CCCC[C@H]1CN(CC2CCOCC2)C(=O)OC12CCN(C1(C)CCN(C(=O)c3c(C)ncnc3C)CC1)CC2
collision cross section in nitrogen (Å²): 240.5

----------
assay: collision cross section in nitrogen (drift tube, single-field); higher = larger gas-phase ion size; conditions: ion type: [M+]; ion source: APCI; ion mode: Positive
Where a name gives a salt, the structure may show the parent alone.
measured metric: collision cross section in nitrogen (Å²)

compound: Cc1cc(-c2cc(C)c(N)c(C)c2)cc(C)c1N [3,3',5,5'-Tetramethylbenzidine]
measured metric: collision cross section in nitrogen
recorded value: 162.4

compound: Nc1ccc(-c2ccc(N)c(Cl)c2)cc1Cl [3,3'-Dichlorobenzidine dihydrochloride]
measured metric: collision cross section in nitrogen
recorded value: 153.3

compound: S=c1[nH]c2ccccc2[nH]1 [2-Mercaptobenzimidazole]
measured metric: collision cross section in nitrogen
recorded value: 125.7

compound: COc1cc(S(=O)(=O)Nc2ccccc2)c(OC)cc1N [4-Amino-2,5-dimethoxy-N-phenylbenzenesulfonamide]
measured metric: collision cross section in nitrogen
recorded value: 167.2

compound: CC1COCc2cc3c(cc21)C(C)(C)C(C)C3(C)C (centres undefined)
measured metric: collision cross section in nitrogen
recorded value: 163.2

(P) CC[C@H]1OC(=O)[C@H](C)[C@@H](O[C@H]2C[C@@](C)(OC)[C@@H](O)[C@H](C)O2)[C@H](C)[C@@H](O[C@@H]2O[C@H](C)C[C@H](N(C)C)[C@H]2O)[C@](C)(O)C[C@@H](C)C(=NOCOCCOC)[C@H](C)[C@@H](O)[C@]1(C)O [Roxithromycin]
(Q) CN1C(=CC=O)C(C)(C)c2ccccc21 [1,3-Dihydro-1,3,3-trimethyl-2H-indol-2-ylidene acetaldehyde]
Challenge: // compare measured collision cross section in nitrogen between P and Q ; output the lower one Reply briefly: the label of your chosen item.
Response given: Q
(Q: 143.2 Å², P: 276.3 Å²)

(A) CC(=O)Nc1ccc2c(c1)Cc1cc(NC(C)=O)ccc1-2 [2,7-Acetylaminofluorene]
(B) CCCC[C@H]1CN(CC2CCOCC2)C(=O)OC12CCN(C1(C)CCN(C(=O)c3c(C)ncnc3C)CC1)CC2
Challenge: Quick one: lower collision cross section in nitrogen, A or B ? Bench note: the answer is the label of the chosen record.
Response given: A

(P) c1ccc2c(c1)c1cccc3ccc4cccc2c4c31 [Benzo[e]pyrene]
(Q) Cc1cc(CCC(=O)OCCOCCOCCOC(=O)CCc2cc(C)c(O)c(C(C)(C)C)c2)cc(C(C)(C)C)c1O
Challenge: Parameter metric = collision cross section in nitrogen. Return the lower-valued option from P and Q . Identify your selection by its label.
Response given: P
(P: 149.7 Å², Q: 234.2 Å²)

----------
experiment: collision cross section in nitrogen (drift tube, single-field); higher = larger gas-phase ion size; settings: ion type: [M+H]; ion source: ESI; ion mode: Positive
Where a name gives a salt, the structure may show the parent alone.
measured metric: collision cross section in nitrogen (Å²)

// solved cases for collision cross section in nitrogen follow
molecule: CC(=O)O[C@]1(C(C)=O)CC[C@H]2[C@@H]3C=C(Cl)C4=CC(=O)[C@@H]5C[C@@H]5[C@]4(C)[C@H]3CC[C@@]21C [Cyproterone acetate]
collision cross section in nitrogen / Å²: 201.9
--
molecule: CN(C)Cc1ccccc1O [2-((Dimethylamino)methyl)phenol]
collision cross section in nitrogen / Å²: 162.2
--
molecule: Cc1c(Cl)c(=O)oc2cc(O)ccc12 [3-Chloro-7-hydroxy-4-methyl-2-benzopyrone]
collision cross section in nitrogen / Å²: 138.4
--
molecule: N=C1NC(=N)c2ccccc21 [1H-Isoindole-1,3(2H)-diimine]
collision cross section in nitrogen / Å²: 126.4
--
molecule: CCOc1nc(F)cc2nc(S(=O)(=O)Nc3c(Cl)cccc3C(=O)OC)nn12 [Cloransulam-methyl]
collision cross section in nitrogen / Å²: 190.7

(P) CCOC(=O)C1=NN(c2ccccc2)C(=O)C1 [Ethyl 5-oxo-1-phenyl-4,5-dihydro-1H-pyrazole-3-carboxylate]
(Q) O=S(=O)(O)c1cc(Nc2nc(Nc3ccccc3)nc(N(CCO)CCO)n2)ccc1C=Cc1ccc(Nc2nc(Nc3ccccc3)nc(N(CCO)CCO)n2)cc1S(=O)(=O)O [C.I. Fluorescent Brightener 28, disodium salt]
Challenge: Between P and Q , which one has the lower reported collision cross section in nitrogen value? // return label of chosen record
Response given: P
(P: 154.5 Å², Q: 307.5 Å²)

----------
assay: collision cross section in nitrogen (drift tube, single-field); higher = larger gas-phase ion size; details: ion type: [M+Na]; ion source: ESI; ion mode: Positive
Where a name gives a salt, the structure may show the parent alone.
measured metric: collision cross section in nitrogen (Å²)

As a guide, the following entries are already answered.
compound: Cc1c(N(C)C)c(=O)n(-c2ccccc2)n1C [4-Dimethylaminoantipyrine]
collision cross section in nitrogen (Å²): 166.2

compound: Cc1ccc(NC(=O)N(C)C)cc1NC(=O)N(C)C
collision cross section in nitrogen (Å²): 167.6

compound: Cc1cc(=O)nc(C(C)C)[nH]1
collision cross section in nitrogen (Å²): 146.4

compound: O=C(NCNC(=O)NC1C(=O)NC(=O)N1CO)NC1C(=O)NC(=O)N1CO (stereo unspecified)
collision cross section in nitrogen (Å²): 183.4

compound: CC(O)CN(CC(C)O)CC(C)O (stereo unspecified)
collision cross section in nitrogen (Å²): 143.9

(A) O=C(O)c1ccccc1C(=O)OCc1ccccc1 [Monobenzyl phthalate]
(B) COc1cc([C@@H]2c3cc4c(cc3[C@@H](O[C@@H]3O[C@@H]5CO[C@@H](C)O[C@H]5[C@H](O)[C@H]3O)[C@H]3COC(=O)[C@H]23)OCO4)cc(OC)c1O [Etoposide]
Challenge: Sorting ascending by collision cross section in nitrogen, which comes first: A or B ? When you have decided, please share the label of that item.
Response given: A

(A) Cc1cc(=O)oc2cc(N(C)C)ccc12
(B) CCN(CC)c1ccc(C(=C2C=CC(=[N+](CC)CC)C=C2)c2ccc(S(=O)(=O)O)cc2S(=O)(=O)[O-])cc1 [C.I. Acid Blue 1, sodium salt]
Challenge: Pick the one with the larger collision cross section in nitrogen: A vs B API: response body contains the label of the selected item.
Response given: B
(B: 255.4 Å², A: 165.6 Å²)
